Data origin, for the record: patent US11046691B1

Tgt: hMAT2A (Homo sapiens (Human), UniProt P31153)
Sequence (P31153 whole entry): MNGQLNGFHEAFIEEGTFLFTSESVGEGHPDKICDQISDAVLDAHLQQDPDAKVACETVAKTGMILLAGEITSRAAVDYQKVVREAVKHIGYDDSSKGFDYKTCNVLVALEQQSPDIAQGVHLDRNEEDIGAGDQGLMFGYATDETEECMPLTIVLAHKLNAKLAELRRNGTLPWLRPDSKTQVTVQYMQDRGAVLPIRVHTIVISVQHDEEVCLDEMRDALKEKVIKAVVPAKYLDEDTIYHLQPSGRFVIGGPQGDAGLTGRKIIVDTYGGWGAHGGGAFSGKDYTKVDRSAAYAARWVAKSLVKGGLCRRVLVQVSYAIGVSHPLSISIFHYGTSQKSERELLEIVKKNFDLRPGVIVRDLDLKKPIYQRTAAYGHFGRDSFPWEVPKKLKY
Assay notes: Phosphate Sensor Fluorescence Assay (MAT2A enzyme inhibition)
Format: biochemical
Condition description: L-methionine 500 uM, ATP 500 uM, class symbols
pIC50: −log10 of the molar value.
Experimental endpoint: pIC50

[[record]]
compound_structure = "O=c1nc(NCC(F)F)c2ccc(C(F)(F)F)cc2n1-c1cccnc1"
experimental_endpoint = "pIC50"
result = "> 6.70"


Reading of pIC50 for `CNc1nc(=O)n(-c2cccnc2C)c2cc(C(F)(F)F)ccc12` with hMAT2A (Homo sapiens (Human), UniProt P31153): > 6.70

Reading of pIC50 for `Nc1nc(=O)n(-c2ccccc2)c2cc(Cl)cc(-n3cccn3)c12` with hMAT2A (Homo sapiens (Human), UniProt P31153): 5.00 to 6.00

Reading of pIC50 for `COc1nc(=O)n(-c2ccccc2)c2cc(C3CC3)ccc12` with hMAT2A (Homo sapiens (Human), UniProt P31153): > 6.70

Reading of pIC50 for `C[C@H](O)CNc1nc(=O)n(-c2ccccc2Cl)c2nc(C(F)(F)F)ccc12` with hMAT2A (Homo sapiens (Human), UniProt P31153): > 6.70

---

Tgt: hMAT2A (Homo sapiens (Human))
Assay notes: Malachite Green Assay (MAT2A enzyme inhibition)
Format: biochemical
Condition description: hMAT2A 50 nM, substrates 500 uM each, 1 hour
pIC50: −log10 of the molar value.
Measured pIC50 of individual entries

Sample records with pIC50:
[[record]]
compound_structure = "CN(C)c1nc(=O)n(-c2ccccc2)c2cc(F)ccc12"
experimental_endpoint = "pIC50"
result = "> 6.70"

[[record]]
compound_structure = "CN(C)c1nc(=O)n(-c2ccccc2)c2c(Cl)c(Cl)ccc12"
experimental_endpoint = "pIC50"
result = "6.30 to 6.70"

[[record]]
compound_structure = "CNc1nc(=O)n(-c2ccccc2)c2cc(Cl)ccc12"
experimental_endpoint = "pIC50"
result = "> 6.70"

[[record]]
compound_structure = "CN(c1nc(=O)n(-c2cccc(F)c2)c2cc(Cl)ccc12)C1CC1"
experimental_endpoint = "pIC50"
result = "> 6.70"


Consider the additional molecule presented here.
Reading of pIC50 for `Nc1nc(=O)n(-c2ccccc2)c2cc(Cl)ccc12` with hMAT2A (Homo sapiens (Human)): > 6.70

---

Tgt: hMAT2A (Homo sapiens (Human))
Assay notes: Phosphate Sensor Fluorescence Assay (MAT2A enzyme inhibition)
Format: biochemical
Condition description: L-methionine 500 uM, ATP 500 uM, class symbols
Measured IC50 of individual entries

Sample records with IC50:
[[record]]
compound = "CNc1nc(=O)n(-c2ccc3[nH]ncc3c2)c2cc(Cl)ccc12"
tgt = "hMAT2A (Homo sapiens (Human))"
result = "< 200 nM"

[[record]]
compound = "COc1nc(=O)n(-c2cccnc2C)c2cc(C(F)(F)F)ccc12"
tgt = "hMAT2A (Homo sapiens (Human))"
result = "< 200 nM"


The compound identified as `O=c1nc(N2CCC2)c2ccc(N3CCC3)cc2n1-c1ccccc1` registered its IC50 at 500 to 1000 nM

---

Measured IC50 of individual entries
Tgt: hMAT2A (Homo sapiens (Human), UniProt P31153)
Assay notes: Phosphate Sensor Fluorescence Assay (MAT2A enzyme inhibition)
Format: biochemical
Condition description: L-methionine 500 uM, ATP 500 uM, class symbols

Sample records with IC50:
[[record]]
compound_structure = "O=c1nc(NCC(F)(F)F)c2ccc(C(F)(F)F)cc2n1-c1ncccn1"
result = "200 to 500 nM"

[[record]]
compound_structure = "CN(C)C(=O)CNc1nc(=O)n(-c2ccccc2)c2cc(Cl)ccc12"
result = "1000 to 10000 nM"


The compound identified as `O=c1nc(N2CC[C@@H](O)C2)c2ccc(C3CC3)cc2n1-c1ccccc1` registered its IC50 at < 200 nM

The compound identified as `O=c1nc(N2CC[C@@H]2CO)c2ccc(Cl)cc2n1-c1ccccc1` registered its IC50 at 200 to 500 nM

The compound identified as `CNc1nc(=O)n(-c2ncccc2C)c2nc(C(F)(F)F)ccc12` registered its IC50 at < 200 nM

---

Tgt: hMAT2A (Homo sapiens (Human), UniProt P31153)
Assay notes: Phosphate Sensor Fluorescence Assay (MAT2A enzyme inhibition)
Format: biochemical
Condition description: L-methionine 500 uM, ATP 500 uM, class symbols
Measured IC50 of individual entries

Sample records with IC50:
[[record]]
compound_structure = "CNc1nc(=O)n(Cc2c[nH]cn2)c2cc(Cl)ccc12"
result = "< 200 nM"

[[record]]
compound_structure = "Nc1nc(=O)n(-c2ccccc2Br)c2cc(Cl)ccc12"
result = "< 200 nM"

[[record]]
compound_structure = "Nc1nc(=O)n(-c2ccccc2Cl)c2nc(C(F)(F)F)ccc12"
result = "< 200 nM"

[[record]]
compound_structure = "CNc1nc(=O)n(-c2cccc(C(=O)O)c2)c2cc(Cl)ccc12"
result = "< 200 nM"

[[record]]
compound_structure = "CNc1nc(=O)n(-c2nc(C)cs2)c2cc(Cl)ccc12"
result = "1000 to 10000 nM"


The compound identified as `CNc1nc(=O)n(-c2ccccc2Cl)c2cc(C3CC3)cc(OC(F)F)c12` registered its IC50 at 200 to 500 nM

The compound identified as `CNc1nc(=O)n(-c2cnccc2C)c2nc(C(F)(F)F)ccc12` registered its IC50 at < 200 nM

The compound identified as `O=c1nc(N[C@@H]2C[C@@H]2F)c2ccc(C3CC3)cc2n1-c1ccccc1Cl` registered its IC50 at < 200 nM

The compound identified as `Cc1ccccc1-n1c(=O)nc(NCC(F)(F)F)c2ccc(C(F)(F)F)cc21` registered its IC50 at < 200 nM

The compound identified as `Cc1ccccc1-n1c(=O)nc(N)c2ccc(C(F)(F)F)cc21` registered its IC50 at < 200 nM

The compound identified as `O=c1nc(NC2CC3(C2)CS(=O)(=O)C3)c2ccc(C(F)(F)F)nc2n1-c1ccccc1Cl` registered its IC50 at 200 to 500 nM

The compound identified as `O=c1nc(NCC(F)F)c2ccc(C3CC3)cc2n1-c1ccccc1` registered its IC50 at < 200 nM

The compound identified as `CNc1nc(=O)n(-c2cccnc2)c2cc(Cl)ccc12` registered its IC50 at < 200 nM

The compound identified as `Cc1ccccc1-n1c(=O)[nH]c(=O)c2ccc(C(F)(F)F)cc21` registered its IC50 at < 200 nM

---

Tgt: hMAT2A (Homo sapiens (Human))
Assay notes: Malachite Green Assay (MAT2A enzyme inhibition)
Assay type: biochemical
Condition description: hMAT2A 50 nM, substrates 500 uM each, 1 hour
Experimental endpoint: IC50

Sample records with IC50:
[[record]]
compound_structure = "CN(C)c1nc(=O)n(-c2cccc(O)c2)c2cc(Cl)ccc12"
result = "< 200 nM"

[[record]]
compound_structure = "COc1nc(=O)n(-c2ccccc2)c2cc(Cl)ccc12"
result = "200 to 500 nM"

[[record]]
compound_structure = "O=c1nc(NCc2ccccc2)c2ccc(Cl)cc2n1-c1ccccc1"
result = "200 to 500 nM"

[[record]]
compound_structure = "N#CC1CN(c2nc(=O)n(-c3cccc(F)c3)c3cc(Cl)ccc23)C1"
result = "< 200 nM"


The molecule identified as `CNc1nc(=O)n(-c2ccccc2)c2cc(OC)ccc12` registered its IC50 at < 200 nM

The molecule identified as `CNc1nc(=O)n(-c2cccc(O)c2)c2cc(Cl)ccc12` registered its IC50 at < 200 nM

The molecule identified as `CNc1nc(=O)n(-c2cccc(Cl)c2)c2cc(Cl)ccc12` registered its IC50 at < 200 nM

---

Tgt: hMAT2A (Homo sapiens (Human), UniProt P31153)
Assay notes: Phosphate Sensor Fluorescence Assay (MAT2A enzyme inhibition)
Assay type: biochemical
Condition description: L-methionine 500 uM, ATP 500 uM, class symbols
Experimental endpoint: IC50

Sample records with IC50:
[[record]]
compound_structure = "O=c1nc(NC2COC2)c2ccc(C(F)(F)F)nc2n1-c1ccccc1Cl"
tgt = "hMAT2A (Homo sapiens (Human), UniProt P31153)"
result = "< 200 nM"

[[record]]
compound_structure = "O=c1nc(N2CC[C@@H](O)C2)c2ccc(C(F)(F)F)cc2n1-c1ccccc1"
tgt = "hMAT2A (Homo sapiens (Human), UniProt P31153)"
result = "< 200 nM"

[[record]]
compound_structure = "O=c1nc(N2CC[C@@H](O)C2)c2ccc(Cl)cc2n1-c1ccc2nccn2c1"
tgt = "hMAT2A (Homo sapiens (Human), UniProt P31153)"
result = "500 to 1000 nM"

[[record]]
compound_structure = "O=c1nc(N2CC[C@@H](O)C2)c2ccc(Cl)cc2n1-c1ccc2[nH]ncc2c1"
tgt = "hMAT2A (Homo sapiens (Human), UniProt P31153)"
result = "< 200 nM"

[[record]]
compound_structure = "Nc1nc(=O)n(-c2ccccc2Cl)c2cc(C(F)(F)F)ccc12"
tgt = "hMAT2A (Homo sapiens (Human), UniProt P31153)"
result = "< 200 nM"


The molecule identified as `Cc1ccccc1-n1c(=O)nc(N2CC(O)C2)c2ccc(C(F)(F)F)nc21` registered its IC50 at < 200 nM

The molecule identified as `CNc1nc(=O)n(-c2ccccc2Cl)c2cc(C(F)(F)F)ccc12` registered its IC50 at < 200 nM

The molecule identified as `CCc1nc(=O)n(-c2ccccc2)c2cc(Cl)ccc12` registered its IC50 at 200 to 500 nM

The molecule identified as `CO[C@@H]1CCN(c2nc(=O)n(-c3ccccc3)c3cc(Cl)ccc23)C1` registered its IC50 at < 200 nM

The molecule identified as `CN(C)C(=O)C1CN(c2nc(=O)n(-c3ccccc3)c3cc(Cl)ccc23)C1` registered its IC50 at < 200 nM

The molecule identified as `CN(C)c1nc(=O)n(-c2ccccc2Cl)c2nc(C(F)(F)F)ccc12` registered its IC50 at < 200 nM

The molecule identified as `O=c1[nH]c(=O)n(-c2cccc3[nH]ncc23)c2cc(Cl)ccc12` registered its IC50 at < 200 nM

The molecule identified as `O=c1nc(OC2CC2)c2ccc(C(F)(F)F)nc2n1-c1ccccc1Cl` registered its IC50 at < 200 nM

The molecule identified as `CNc1nc(=O)n(-c2ccn[nH]2)c2cc(Cl)ccc12` registered its IC50 at < 200 nM

The molecule identified as `O=c1nc(NCC(F)(F)F)c2ccc(C(F)(F)F)nc2n1-c1ccccc1` registered its IC50 at < 200 nM

The molecule identified as `CS(=O)(=O)Nc1nc(=O)n(-c2ccccc2)c2cc(Cl)ccc12` registered its IC50 at 1000 to 10000 nM

The molecule identified as `COC(=O)C1CN(c2nc(=O)n(-c3ccccc3)c3cc(Cl)ccc23)C1` registered its IC50 at < 200 nM

The molecule identified as `CNc1nc(=O)n(-c2ccccc2)c2cc(Cl)cc(OCCN)c12` registered its IC50 at 500 to 1000 nM
